Source of measurements: ChEMBL document CHEMBL4732095

# assay: Stability in human plasma assessed as compound remaining incubated for 60 mins
# Assay type: ADME, cell-free
# measurementContext: read-out: Stabilty
For each of the molecules below, state its remaining at 1 h.

Query :: GET /values?readout=remaining at 1 h&item= O=C(NC(Cn1ccnc1)C(=O)NCc1ccncc1)c1ccc2ccccc2c1 (configuration not stated)
Result :: 94.5%

Now look at this entry.
Query :: GET /values?readout=remaining at 1 h&item= CC(NC(=O)c1cccc2ccccc12)C(=O)NC(Cn1ccnc1)C(=O)c1ccccc1 (configuration not stated)
Result :: 96.3%

----------
For each of the compounds below, state its IC50.
# targetEntity: Lanosterol 14-alpha demethylase (Candida albicans (strain SC5314 / ATCC MYA-2876) (Yeast), UniProt P10613)
# Sequence (P10613 whole entry): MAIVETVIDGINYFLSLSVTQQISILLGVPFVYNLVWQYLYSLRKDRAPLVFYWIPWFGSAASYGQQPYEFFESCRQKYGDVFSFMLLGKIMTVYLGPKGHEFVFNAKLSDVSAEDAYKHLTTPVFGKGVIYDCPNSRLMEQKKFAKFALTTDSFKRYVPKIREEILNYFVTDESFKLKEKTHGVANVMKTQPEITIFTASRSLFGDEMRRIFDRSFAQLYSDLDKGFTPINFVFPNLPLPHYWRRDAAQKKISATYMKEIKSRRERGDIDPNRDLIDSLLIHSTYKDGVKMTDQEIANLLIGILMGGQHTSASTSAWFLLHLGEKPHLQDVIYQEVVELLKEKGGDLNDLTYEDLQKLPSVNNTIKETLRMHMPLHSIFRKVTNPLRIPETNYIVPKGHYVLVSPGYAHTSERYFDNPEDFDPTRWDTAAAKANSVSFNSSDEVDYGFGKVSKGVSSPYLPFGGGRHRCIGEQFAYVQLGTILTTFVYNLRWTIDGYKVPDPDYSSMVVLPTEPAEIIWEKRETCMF
# assay: Inhibition of Candida albicans ATCC SC5314 CYP51 incubated for 30 mins by HPLC method
Give bare numbers, in nM.

Query :: GET /values?readout=IC50&item= O=C(NC(Cn1ccnc1)C(=O)NCc1ccncc1)c1ccc2ccccc2c1 (stereo not drawn)
Result :: 1150

Query :: Now consider OC(Cn1cncn1)(Cn1cncn1)c1ccc(F)cc1F [FLUCONAZOLE] and answer again.
Result :: 116

New cases:
Query :: GET /values?readout=IC50&item= CC(NC(=O)c1cccc2ccccc12)C(=O)NC(Cn1ccnc1)C(=O)c1ccccc1 (stereo not drawn)
Result :: 537
